Test system: MRSP (Methicillin-Resistant Staphylococcus pseudintermedius)
Experiment: MIC against selected strains of MRSP
Type: cell-based
Design: key: MIC in μM (visual, first well with no growth)
Settings: MRSP strain 80279, Table 6
Task for the reader: assign each of the following substances its reported MR 80279.

Fill in the blank: the reported MR 80279 of 30 (PWCFRVCYRGICYRRCR; Artificial Antimicrobial peptide) [compound 30] is ____.
0.8

Fill in the blank: the reported MR 80279 of 28 (PKWCFRVCYRGICYRRCR; Artificial Antimicrobial peptide) [compound 28] is ____.
1.6

Fill in the blank: the reported MR 80279 of 110 (KWCFRVCYRGYCYRRCRD; Artificial Antimicrobial peptide) [compound 110] is ____.
1.6

Fill in the blank: the reported MR 80279 of 98 (KWCVRVCYRGICYRRCRD; Artificial Antimicrobial peptide) [compound 98] is ____.
1.6

Fill in the blank: the reported MR 80279 of 99 (KWCFFVCYRGICYRRCRD; Artificial Antimicrobial peptide) [compound 99] is ____.
1.6

Fill in the blank: the reported MR 80279 of 113 (KWCFRVCYRGICYRRCAD; Artificial Antimicrobial peptide) [compound 113] is ____.
1.6

Fill in the blank: the reported MR 80279 of 109 (KWCFRVCYRRICYRRCRD; Artificial Antimicrobial peptide) [compound 109] is ____.
1.6

Fill in the blank: the reported MR 80279 of 112 (KWCFRVCYRGICYRRCKD; Artificial Antimicrobial peptide) [compound 112] is ____.
0.8

Fill in the blank: the reported MR 80279 of 97 (KRCFRVCYRGICYRRCRD; Artificial Antimicrobial peptide) [compound 97] is ____.
3.1

Fill in the blank: the reported MR 80279 of 107 (KWCFRVCWRGICYRRCRD; Artificial Antimicrobial peptide) [compound 107] is ____.
1.6

Fill in the blank: the reported MR 80279 of 100 (KWCFWVCYRGICYRRCRD; Artificial Antimicrobial peptide) [compound 100] is ____.
1.6

Fill in the blank: the reported MR 80279 of 116 (KWCFYVCYRGICYRRCND; Artificial Antimicrobial peptide) [compound 116] is ____.
1.6

Fill in the blank: the reported MR 80279 of 104 (KWCFRVCYFGICYRRCRD; Artificial Antimicrobial peptide) [compound 104] is ____.
1.6

Fill in the blank: the reported MR 80279 of 103 (KWCFRVCKRGICYRRCRD; Artificial Antimicrobial peptide) [compound 103] is ____.
3.1

Fill in the blank: the reported MR 80279 of 106 (KWCWRVCYRGICYRRCRD; Artificial Antimicrobial peptide) [compound 106] is ____.
1.6
